Attribution: paper doi:10.1101/2022.10.19.512833

# testedSystem: T1, human TSG101 UEV (1-145) domain (human, UniProt Q99816 1-145)
# T1 sequence (looked up): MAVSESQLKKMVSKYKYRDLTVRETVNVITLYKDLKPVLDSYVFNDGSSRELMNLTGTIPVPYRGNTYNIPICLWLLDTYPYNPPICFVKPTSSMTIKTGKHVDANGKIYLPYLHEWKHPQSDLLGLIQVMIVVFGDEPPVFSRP
# experimentNotes: fluorescence polarisation
observable: pKd
Schema: pKd number; meaning minus log10 of the concentration expressed in molar units.

INSERT INTO results (binder, testresult) VALUES
  ('APQGLIPTAPPADPAA [GAG (HIV-2) peptide, residues 450-465, unlabeled]', 5.22);

Please find the next binder below.
Problem: Please give the measured pKd for this binder: LQSRPEPTAPPEESFR (peptide, UniProt P04591 449-464, looked up) [GAG (HIV-1) residues 449-464, unlabeled peptide]
Solution: 4.82
